Each record here notes measured reverse-splicing fitness.
B1: Azoarcus group I ribozyme (parent)
chain: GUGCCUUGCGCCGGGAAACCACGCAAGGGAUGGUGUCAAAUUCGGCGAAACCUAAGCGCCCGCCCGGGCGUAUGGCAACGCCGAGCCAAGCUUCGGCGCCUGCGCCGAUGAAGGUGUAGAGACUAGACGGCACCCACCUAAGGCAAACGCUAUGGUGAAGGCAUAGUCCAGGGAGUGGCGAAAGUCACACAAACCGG

# Variants of: B1
# PROCEDURE_DETAILS: reverse-splicing fitness (ratio to wild type); higher = more active; in vitro selection; Mg2+ level not given
Keep the answer to the number alone.

Answered cases to consult:
sequence_variant="C82A A111U A145U C150G U176C" reported_measurement=0.0189
sequence_variant="C82A A111C A120C A145C C150A U176C" reported_measurement=0.011

[Q] Please report the recorded reverse-splicing fitness for C82A A111C A120C A145G C150A C169U U176G .
[A] 0.00795

[Q] Try this variant too: C82G A120U C150U C169A U176C
[A] 0.00267

[Q] Try this variant too: C82G A111U A120C A145U C150A C169A U176G
[A] 0.00709

[Q] Try this variant too: C82U A111C C150G C169A U176A
[A] 0.00878

[Q] Try this variant too: C82U A111U A120C A145C C169G U176A
[A] 0.0202

[Q] Try this variant too: C82G A111G A120C C150A C169A U176C
[A] 0.0204

[Q] Try this variant too: A111C A120G A145G C150G U176G
[A] 0.00613

[Q] Try this variant too: C82U A111G A145U C150A C169U U176A
[A] 0.013

[Q] Try this variant too: C82U A111G A120U A145U C150U C169G U176C
[A] 0.00294

[Q] Try this variant too: A111G A120G A145G C169U U176G
[A] 0.00896

[Q] Try this variant too: C82A A111G A120G A145U C150U C169A U176G
[A] 0.00488

[Q] Try this variant too: C82G A120U C169A U176G
[A] 0.000985

[Q] Try this variant too: C82U A111C A120U C150G U176C
[A] 0.00605

[Q] Try this variant too: C82U C150U C169A U176C
[A] 0.0123

[Q] Try this variant too: A120U A145G C150U C169G U176C
[A] 0.063

[Q] Try this variant too: C82U A120U A145U C150G C169G U176C
[A] 0.00209
